Measured z-score of individual entries
assay: E. coli DRC41 culture turbidity changes, primary screen, E. coli filamentation inducer project, strain DRC41, OD650, 48 h (AID 1152);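 note: E. coli MC1000 strain DRC41 lacking acrAB efflux pump and sulA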; details: E. coli DRC41 (acrAB sulA), higher = more signal, called active from +8 up or from −8 down
Write no unit; give the number alone.

# example entries with known answers
molecule=COC(=O)[C@@]1(Cc2ccc(F)cc2)[C@@H]2[C@@H](CC(=O)[C@H]2CC(=O)C(=O)N(C)C)CN1C(=O)c1ccccc1 metric_name=z-score observed=-1.78
molecule="COc1ccc(C(=O)O[C@H]2CC[C@]3(C)C4=C(CCC3C2(C)C)[C@]2(C)CC[C@H]([C@H](C)CCCC(C)C)[C@@]2(C)CC4)cc1 (some centres undefined)" metric_name=z-score observed=3.06

Query block: Supply recorded z-score for COc1ccc(C#Cc2ccc3c(c2)[C@]2(C(=O)N3)[C@H](c3ccccc3OCCO)N3[C@H](c4ccccc4)[C@H](c4ccccc4)OC(=O)[C@H]3[C@@H]2C(=O)O)cc1 here.
Result block: -0.181

Query block: Supply recorded z-score for C=C(COC)/C(=C/C[C@@H](OC(C)=O)c1ccc(CO)o1)c1cnc2ccccc2c1 here.
Result block: 0.876

---

test: binders of probe aFSTL3 on microarray, primary screen, stem cell growth factor project, biochemical, small-molecule microarray, fluorescence 635/667 (AID 1064); settings: higher = more signal;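 note: measures binding of the biotinylated anti-FSTL3 antibody to printed compounds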
Measured composite z-score of individual entries
Write no unit; give the number alone.

# example entries with known answers
molecule="CCCCCC1=C2CNC(CCC)(C(=O)OC)C=C2C(C)C1=O (stereo not drawn)" metric_name="composite z-score" observed=0.327
molecule=O=C1c2ccccc2[C@@]2(Cc3ccccc3N(CCN3CCOCC3)C2=O)[C@H](c2ccc(CO)cc2)N1Cc1ccccc1 metric_name="composite z-score" observed=-0.0459
molecule="CS(=O)(=O)CCOC(=O)C1=CC(CCCO)=CC(c2ccc(CN3CCCC3)cc2)N(Cc2cc3c(cc2Br)OCO3)C=C1C(=O)OCCS(C)(=O)=O (stereo not drawn)" metric_name="composite z-score" observed=0.26

Query block: Supply recorded composite z-score for CN(C)C(=O)[C@]1(Cc2ccccc2CN=[N+]=[N-])N=C(c2ccc(OCCCO)cc2)O[C@@H]1c1ccccc1CN=[N+]=[N-] here.
Result block: -0.0551

Query block: Supply recorded composite z-score for CCCC=C(CCC)[C@@H](NC(=O)Oc1ccc(F)cc1)c1ccc(C(=O)OC)cc1 here.
Result block: 0.415

Query block: Supply recorded composite z-score for O=C1NCC(=O)N2[C@@H]1C[C@@H](C(=O)O)[C@H]2c1cccc(OCCO)c1 here.
Result block: 3.93

Query block: Supply recorded composite z-score for COC(=O)C=C(CC(O)c1cccc(Cl)c1)OC (stereo not drawn) here.
Result block: 1.55

Query block: Supply recorded composite z-score for CC(C)(C)OC(=O)CC[C@@]1(C(=O)NCC(O)CO)N=C(c2ccc(OCCCO)cc2)O[C@@H]1c1ccccc1N=[N+]=[N-] (stereo partly drawn) here.
Result block: 0.119

---

assay: binders of probe aFGF10 on microarray, primary screen, stem cell growth factor project, biochemical, small-molecule microarray, fluorescence 635/667 (AID 1071); details: higher = more signal;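 note: score merges 667 nm spot intensity and signal to noise from triplicate slides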
Measured composite z-score of individual entries

# example entries with known answers
compound=CCOC(=O)C[C@H]1[C@H](OC(=O)Cc2ccc3c(c2)OCO3)[C@@H](NC(=O)c2ccc(-c3ccccc3)cc2)c2cc(OCCCO)ccc2N1C(=O)Cc1ccc(OC)cc1 observed=0.412
compound="COc1ccc(COC2OC[C@]3(C)[C@H]4C5=C(CN3C(=O)OC(C)(C)C)[C@H](C)C(CO)C(CO)C5CC[C@@H]24)cc1 (some centres not stated)" observed=0.424
compound=CC(C)N1C(=O)c2ccccc2[C@](C)(C(=O)NCc2ccccc2)[C@@H]1c1ccc(CO)cc1 observed=-0.158

Query block: Supply recorded composite z-score for CCOC(=O)[C@H]1C/C=C/C[C@H](C(=O)OCC)C(=O)O[C@H]2[C@@H](OC)O[C@H](CO)[C@@H](OC(=O)Nc3ccc(C#N)cc3)[C@@H]2OC1=O here.
Result block: 0.287

Query block: Supply recorded composite z-score for COc1ccc(CCNC(=O)[C@@]2(C)c3ccccc3C(=O)N(Cc3cc(F)cc(C(F)(F)F)c3)[C@H]2c2ccc(CO)cc2)cc1 here.
Result block: -0.23

Query block: Supply recorded composite z-score for O=C1OCCC/C=C\[C@H]2OC34C=CCN(Cn5nnc6ccccc65)C(=O)[C@H]3N(CCCCCCO)C(=O)[C@@H]4C12 (some centres not stated) here.
Result block: -1.04

Query block: Supply recorded composite z-score for CCCC=C(CCC)[C@@H](NS(=O)(=O)c1cccs1)c1ccc(C(=O)OC)cc1 here.
Result block: 0.646

---

Measured z-score of individual entries
assay: basal S. cerevisiae growth modulation, no modifier, primary screen, OD600, strain BY4716, 24 h, basal condition (AID 1173); conditions: OD600, 24 h, higher = more signal, called active from +8 up or from −8 down
Calls of active or inactive are those of the source.

# example entries with known answers
compound=C[C@@H]1ON(c2cccc(C(=O)OC(C)(C)C)c2)[C@H](c2ccc(Br)cc2)[C@H]1C(=O)N1C(=O)OC[C@H]1Cc1ccccc1 observed="0.724 (inactive)"
compound=C=CCOC(=O)[C@@H]1[C@H]2C(=O)O[C@H](c3ccccc3)[C@H](c3ccccc3)N2[C@H](c2ccc(OCCOC(=O)[C@@H]3C[C@@H]4C(=O)N[C@@H](CCCCN(C)C)C(=O)N4[C@@H]3c3ccc(O)cc3)cc2)[C@@]12C(=O)Nc1ccc(I)cc12 observed="-0.955 (inactive)"
compound=O=C(NCc1ccccc1)[C@@H]1c2ccccc2C(=O)N(CC23CC4CC(CC(C4)C2)C3)[C@H]1c1ccc(CO)cc1 observed="-0.092 (inactive)"
compound=COC(=O)[C@@]1(Cc2ccccc2)[C@H]2c3cc(C(=O)N4CCCC4)n(Cc4nc5ccccc5[nH]4)c3C[C@H]2CN1C(=O)c1ccccc1 observed="1.22 (inactive)"
compound=COCCOC(=O)N1C(=O)[C@@]2(c3cc(C#CC4=CCCCC4)ccc31)[C@H](C(=O)Nc1nc3ccccc3s1)[C@H]1C(=O)O[C@H](c3ccccc3)[C@H](c3ccccc3)N1[C@@H]2c1ccccc1OCCO observed="0.794 (inactive)"

Next compound, please.
Query block: Supply recorded z-score for COc1ccc(NN2C(C(O)c3ccc([N+](=O)[O-])cc3)C=CC3C(=O)N(C4CCCCC4)C(=O)C32)cc1 (stereo unspecified) here.
Result block: 0.136 (inactive)

---

test system: Plasmodium falciparum Sir2 (PF13_0152, Sir2A); test: pfSir2 binders on small-molecule microarrays, primary screen, biochemical, small-molecule microarray, 635 nm fluorescence (AID 1098); details: small-molecule microarray binding, fluorescence 635 nm; higher = more signal;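 note: score merges spot fluorescence intensity with its signal-to-noise ratio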
yes (1) means recorded composite z-score is 0.9 or above; no (0) means it is below 0.9.

Consider the following illustrative entries.
compound=CCCC[C@@H]1C[C@H]1[C@@H](NC(=O)c1ccco1)c1ccc(C(=O)OC)cc1 test_system="Plasmodium falciparum Sir2 (PF13_0152, Sir2A)" assigned_label="no (0)"
compound=[N-]=[N+]=NCc1ccccc1[C@H]1OC(c2ccc(OCCCO)cc2)=N[C@@]1(Cc1ccccc1)C(=O)NCc1ccccc1 test_system="Plasmodium falciparum Sir2 (PF13_0152, Sir2A)" assigned_label="no (0)"
compound=COCCOC(=O)N1C(=O)[C@@]2(c3cc(C#Cc4ccc(OC)cc4)ccc31)[C@H](C(=O)N1CCCCCCC1)[C@H]1C(=O)O[C@H](c3ccccc3)[C@H](c3ccccc3)N1[C@@H]2c1ccc(OCCO)cc1 test_system="Plasmodium falciparum Sir2 (PF13_0152, Sir2A)" assigned_label="yes (1)"
compound="O=C(C1N=C(c2ccc(OCCCO)cc2)N(c2ccccc2)O1)N1CCOCC1 (stereo not drawn)" test_system="Plasmodium falciparum Sir2 (PF13_0152, Sir2A)" assigned_label="no (0)"
compound="[N-]=[N+]=NCc1ccccc1C[C@@]1(C(=O)NCC(O)CO)N=C(c2ccc(OCCCO)cc2)O[C@@H]1c1ccccc1N=[N+]=[N-] (stereo partly drawn)" test_system="Plasmodium falciparum Sir2 (PF13_0152, Sir2A)" assigned_label="yes (1)"
compound=C=CCOC(=O)[C@H]1[C@@H]2C(=O)O[C@@H](c3ccccc3)[C@@H](c3ccccc3)N2[C@@H](c2ccc(OCCOC(=O)[C@@H]3C[C@@H]4C(=O)N[C@@H](CCCCN(C)C)C(=O)N4[C@@H]3c3ccc(O)cc3)cc2)[C@]12C(=O)Nc1ccc(I)cc12 test_system="Plasmodium falciparum Sir2 (PF13_0152, Sir2A)" assigned_label="yes (1)"

Query block: Item COc1cc2c(cc1OC)CN(C(=O)[C@H]1[C@@H]3C(=O)O[C@@H](c4ccccc4)[C@@H](c4ccccc4)N3[C@@H](c3ccc(O)cc3)[C@]13C(=O)Nc1ccc(C#CCNC(N)=O)cc13)CC2 with composite z-score of 0.9 or above?
Result block: yes (1)

Query block: Item CCc1oc(CC[C@@H](CO)NC(=O)NCCn2cc(C3(O)CCCCC3)nn2)c(C(=O)OC)c1C(=O)OC with composite z-score of 0.9 or above?
Result block: no (0)

Query block: Item COCCOC(=O)N1C(=O)[C@@]2(c3cc(C#CCNC(N)=O)ccc31)[C@H](C(=O)NC[C@H](O)c1ccccc1)[C@H]1C(=O)O[C@H](c3ccccc3)[C@H](c3ccccc3)N1[C@@H]2c1ccccc1OCCO with composite z-score of 0.9 or above?
Result block: yes (1)

Query block: Item O=C(NCc1ccccc1)[C@@]1(Cc2ccccc2)N=C(c2ccc(OCCCO)cc2)O[C@H]1c1ccccc1 with composite z-score of 0.9 or above?
Result block: no (0)

Query block: Item COC(=O)[C@@]1(Cc2ccccc2)[C@H]2c3cc(C(=O)N4CCCC4)n(Cc4nc5ccccc5[nH]4)c3C[C@H]2CN1C(=O)c1ccccc1 with composite z-score of 0.9 or above?
Result block: no (0)

Taken from PubChem BioAssay.
